tested on: Streptococcus pneumoniae; assay: Antibacterial activity against erythromycin-resistant Streptococcus pneumoniae B1 expressing ermB gene by broth microdilution method; assay type: functional
ASSAY_METRIC: MIC (µg/mL)
Quick note: give the figure in µg/mL, leave out the unit.

- CC[C@H]1OC(=O)[C@H](C)[C@@H](O)[C@H](C)[C@@H](O[C@@H]2O[C@H](C)C[C@H](N(C)C)[C@H]2OC(=O)Nc2cccc(F)c2)[C@](C)(O)C[C@@H](C)CN(C)[C@H](C)[C@H]2OC(=O)O[C@@]21C: 256
- CC[C@H]1OC(=O)[C@H](C)[C@@H](O[C@H]2C[C@@](C)(OC)[C@@H](O)[C@H](C)O2)[C@H](C)[C@@H](O[C@@H]2O[C@H](C)C[C@H](N(C)C)[C@H]2O)[C@](C)(OC)C[C@@H](C)C(=O)[C@H](C)[C@@H](O)[C@]1(C)O: 256
- CC[C@H]1OC(=O)[C@H](C)[C@@H](OC(=O)Nc2cccc(Cl)c2)[C@H](C)[C@@H](O[C@@H]2O[C@H](C)C[C@H](N(C)C)[C@H]2O)[C@](C)(O)C[C@@H](C)CN(C)[C@H](C)[C@H]2OC(=O)O[C@@]21C: 32

Q. Value lookup for MIC; key = "CC[C@H]1OC(=O)[C@H](C)[C@@H](O)[C@H](C)[C@@H](O[C@@H]2O[C@H](C)C[C@H](N(C)C)[C@H]2OC(=O)Nc2ccc(F)cc2)[C@](C)(O)C[C@@H](C)CN(C)[C@H](C)[C@H]2OC(=O)O[C@@]21C"
A. 64

###

Reported values of MIC for individual entries
test system: Staphylococcus epidermidis; experiment: Antibacterial activity against penicillin-resistant Staphylococcus epidermidis clinical isolate by broth microdilution method; format: functional

• CC[C@H]1OC(=O)[C@H](C)[C@@H](OC(=O)Nc2ccccc2)[C@H](C)[C@@H](O[C@@H]2O[C@H](C)C[C@H](N(C)C)[C@H]2O)[C@](C)(O)C[C@@H](C)CN(C)[C@H](C)[C@H]2OC(=O)O[C@@]21C = 4 mg/L

Q. I would be grateful if you could share the reported MIC for "CC[C@H]1OC(=O)[C@H](C)[C@@H](OC(=O)Nc2ccc(F)cc2)[C@H](C)[C@@H](O[C@@H]2O[C@H](C)C[C@H](N(C)C)[C@H]2O)[C@](C)(O)C[C@@H](C)CN(C)[C@H](C)[C@H]2OC(=O)O[C@@]21C" .
A. 64 mg/L

Q. Would you kindly share the measured MIC for "CC[C@H]1OC(=O)[C@H](C)[C@@H](O)[C@H](C)[C@@H](O[C@@H]2O[C@H](C)C[C@H](N(C)C)[C@H]2OC(=O)Nc2cccc(OC)c2)[C@](C)(O)C[C@@H](C)CN(C)[C@H](C)[C@H]2OC(=O)O[C@@]21C" ?
A. 64 mg/L

Q. What value of MIC has been recorded for this entry: "CCCCCCNC(=O)O[C@@H]1[C@@H](C)N(C)C[C@H](C)C[C@@](C)(O)[C@H](O[C@@H]2O[C@H](C)C[C@H](N(C)C)[C@H]2O)[C@@H](C)[C@H](OC(=O)Nc2ccc(OC)cc2)[C@@H](C)C(=O)O[C@H](CC)[C@@]1(C)O"
A. 0.125 mg/L

Q. Report MIC for "CC[C@H]1OC(=O)[C@H](C)[C@@H](OC(=O)Nc2ccccc2F)[C@H](C)[C@@H](O[C@@H]2O[C@H](C)C[C@H](N(C)C)[C@H]2O)[C@](C)(O)C[C@@H](C)CN(C)[C@H](C)[C@H]2OC(=O)O[C@@]21C" please.
A. 4 mg/L

###

tested on: Streptococcus pneumoniae; test: Antibacterial activity against erythromycin-resistant Streptococcus pneumoniae AB11 expressing ermB/mefA genes by broth microdilution method; format: functional
With a cut-off of 20 µg/mL, any MIC strictly below it is called MET; any MIC meeting it or above is called NOT MET.

Example entries and their recorded answers appear below.
* CC[C@H]1OC(=O)[C@H](C)[C@@H](OC(=O)Nc2ccccc2)[C@H](C)[C@@H](O[C@@H]2O[C@H](C)C[C@H](N(C)C)[C@H]2O)[C@](C)(O)C[C@@H](C)CN(C)[C@H](C)[C@@H](OC(=O)NCc2ccc(C)cc2)[C@]1(C)O | NOT MET
* CC[C@H]1OC(=O)[C@H](C)[C@@H](OC(=O)Nc2ccccc2C)[C@H](C)[C@@H](O[C@@H]2O[C@H](C)C[C@H](N(C)C)[C@H]2OC(C)=O)[C@](C)(O)C[C@@H](C)CN(C)[C@H](C)[C@H]2OC(=O)O[C@@]21C | MET
* CCCCCCNC(=O)O[C@H]1[C@H](C)[C@@H](O[C@@H]2O[C@H](C)C[C@H](N(C)C)[C@H]2OC(C)=O)[C@](C)(O)C[C@@H](C)CN(C)[C@H](C)[C@H]2OC(=O)O[C@]2(C)[C@@H](CC)OC(=O)[C@@H]1C | MET
* CC[C@H]1OC(=O)[C@H](C)[C@@H](OC(=O)Nc2ccc(F)cc2)[C@H](C)[C@@H](O[C@@H]2O[C@H](C)C[C@H](N(C)C)[C@H]2O)[C@](C)(O)C[C@@H](C)CN(C)[C@H](C)[C@H]2OC(=O)O[C@@]21C | MET
* CC[C@H]1OC(=O)[C@H](C)[C@@H](O)[C@H](C)[C@@H](O[C@@H]2O[C@H](C)C[C@H](N(C)C)[C@H]2OC(=O)Nc2cccc(OC)c2)[C@](C)(O)C[C@@H](C)CN(C)[C@H](C)[C@H]2OC(=O)O[C@@]21C | NOT MET
* CC[C@H]1OC(=O)[C@H](C)[C@@H](OC(=O)Nc2ccccc2F)[C@H](C)[C@@H](O[C@@H]2O[C@H](C)C[C@H](N(C)C)[C@H]2O)[C@](C)(O)C[C@@H](C)CN(C)[C@H](C)[C@H]2OC(=O)O[C@@]21C | MET

Q. A record lists "CC[C@H]1OC(=O)[C@H](C)[C@@H](OC(=O)Nc2cccc(C)c2)[C@H](C)[C@@H](O[C@@H]2O[C@H](C)C[C@H](N(C)C)[C@H]2O)[C@](C)(O)C[C@@H](C)CN(C)[C@H](C)[C@@H](OC(=O)NCc2ccc(C)cc2)[C@]1(C)O" . Is its MIC below 20 µg/mL?
A. MET

Q. Please indicate whether the reported MIC of "CC[C@H]1OC(=O)[C@H](C)[C@@H](OC(=O)Nc2ccccc2C)[C@H](C)[C@@H](O[C@@H]2O[C@H](C)C[C@H](N(C)C)[C@H]2O)[C@](C)(O)C[C@@H](C)CN(C)[C@H](C)[C@H]2OC(=O)O[C@@]21C" is strictly below 20 µg/mL.
A. MET

###

tested on: Streptococcus pyogenes; assay: Antibacterial activity against erythromycin-susceptible Streptococcus pyogenes clinical isolate by broth microdilution method; format: functional
ASSAY_METRIC: MIC (µg/mL)
Numbers only; they are read as µg/mL.

- CC[C@H]1OC(=O)[C@H](C)[C@@H](OC(=O)Nc2ccccc2F)[C@H](C)[C@@H](O[C@@H]2O[C@H](C)C[C@H](N(C)C)[C@H]2O)[C@](C)(O)C[C@@H](C)CN(C)[C@H](C)[C@H]2OC(=O)O[C@@]21C: 0.5

Please examine the following record next.
Q. Looking for the measured MIC of "CC[C@H]1OC(=O)[C@H](C)[C@@H](OC(=O)NCc2ccccc2)[C@H](C)[C@@H](O[C@@H]2O[C@H](C)C[C@H](N(C)C)[C@H]2OC(C)=O)[C@](C)(O)C[C@@H](C)CN(C)[C@H](C)[C@H]2OC(=O)O[C@@]21C" , can you help?
A. 8

###

tested on: Staphylococcus aureus; experiment: Antibacterial activity against erythromycin-susceptible Staphylococcus aureus ATCC 25923 by broth microdilution method; type: functional
Listed next: entries and their corresponding MIC.
Number first, unit second.

In the examples that follow, each entry is paired with its recorded MIC.
- CCCCCNC(=O)O[C@H]1[C@H](C)[C@@H](O[C@@H]2O[C@H](C)C[C@H](N(C)C)[C@H]2OC(C)=O)[C@](C)(O)C[C@@H](C)CN(C)[C@H](C)[C@H]2OC(=O)O[C@]2(C)[C@@H](CC)OC(=O)[C@@H]1C: 32 µg/mL
- CC[C@H]1OC(=O)[C@H](C)[C@@H](OC(=O)Nc2cccc(F)c2)[C@H](C)[C@@H](O[C@@H]2O[C@H](C)C[C@H](N(C)C)[C@H]2O)[C@](C)(O)C[C@@H](C)CN(C)[C@H](C)[C@H]2OC(=O)O[C@@]21C: 32 µg/mL
- CC[C@H]1OC(=O)[C@H](C)[C@@H](OC(=O)Nc2ccccc2)[C@H](C)[C@@H](O[C@@H]2O[C@H](C)C[C@H](N(C)C)[C@H]2OC(C)=O)[C@](C)(O)C[C@@H](C)CN(C)[C@H](C)[C@H]2OC(=O)O[C@@]21C: 32 µg/mL

Q. Using the record for "CC[C@H]1OC(=O)[C@H](C)[C@@H](OC(=O)Nc2ccccc2C)[C@H](C)[C@@H](O[C@@H]2O[C@H](C)C[C@H](N(C)C)[C@H]2O)[C@](C)(O)C[C@@H](C)CN(C)[C@H](C)[C@@H](OC(=O)NCc2ccccc2)[C@]1(C)O" , report its MIC.
A. 1 µg/mL

Q. Recorded MIC of "CC[C@H]1OC(=O)[C@H](C)[C@@H](OC(=O)Nc2ccc(F)cc2)[C@H](C)[C@@H](O[C@@H]2O[C@H](C)C[C@H](N(C)C)[C@H]2O)[C@](C)(O)C[C@@H](C)CN(C)[C@H](C)[C@H]2OC(=O)O[C@@]21C" , please.
A. 32 µg/mL

Q. Entry "CC[C@H]1OC(=O)[C@H](C)[C@@H](OC(=O)Nc2ccc(C(F)(F)F)cc2)[C@H](C)[C@@H](O[C@@H]2O[C@H](C)C[C@H](N(C)C)[C@H]2O)[C@](C)(O)C[C@@H](C)CN(C)[C@H](C)[C@H]2OC(=O)O[C@@]21C" has what MIC?
A. 16 µg/mL

Q. Tell me the measured MIC of "CC[C@H]1OC(=O)[C@H](C)[C@@H](O)[C@H](C)[C@@H](O[C@@H]2O[C@H](C)C[C@H](N(C)C)[C@H]2OC(=O)Nc2ccc(F)cc2)[C@](C)(O)C[C@@H](C)CN(C)[C@H](C)[C@H]2OC(=O)O[C@@]21C" , please.
A. 16 µg/mL

Q. Which MIC is reported for this compound? "CCCCCCNC(=O)O[C@H]1[C@H](C)[C@@H](O[C@@H]2O[C@H](C)C[C@H](N(C)C)[C@H]2OC(C)=O)[C@](C)(O)C[C@@H](C)CN(C)[C@H](C)[C@H]2OC(=O)O[C@]2(C)[C@@H](CC)OC(=O)[C@@H]1C"
A. 16 µg/mL

Q. Item under review: "CC[C@H]1OC(=O)[C@H](C)[C@@H](OC(=O)Nc2ccccc2)[C@H](C)[C@@H](O[C@@H]2O[C@H](C)C[C@H](N(C)C)[C@H]2O)[C@](C)(O)C[C@@H](C)CN(C)[C@H](C)[C@H]2OC(=O)O[C@@]21C" . Reported MIC?
A. 2 µg/mL

Q. Return reported MIC; argument: "CC[C@H]1OC(=O)[C@H](C)[C@@H](O)[C@H](C)[C@@H](O[C@@H]2O[C@H](C)C[C@H](N(C)C)[C@H]2OC(=O)n2ccnc2)[C@](C)(O)C[C@@H](C)CN(C)[C@H](C)[C@H]2OC(=O)O[C@@]21C"
A. 64 µg/mL

Q. Record request: MIC value, item "CC[C@H]1OC(=O)[C@H](C)[C@@H](O[C@H]2C[C@@](C)(OC)[C@@H](O)[C@H](C)O2)[C@H](C)[C@@H](O[C@@H]2O[C@H](C)C[C@H](N(C)C)[C@H]2O)[C@](C)(OC)C[C@@H](C)C(=O)[C@H](C)[C@@H](O)[C@]1(C)O"
A. 0.25 µg/mL
